Experiment: kinetic solubility in FaSSIF (Pion µDissolution monitor)
Assay type: physicochemical
Settings: thermodynamic from solid; FaSSIF pH 6.5; 37° C; T=30 min

[
  {
    "Entry Smiles": "C[C@@H]1C[C@H]2[C@@H]3CCC4=CC(=O)C=C[C@]4(C)C3=CC[C@]2(C)[C@@]1(O)C(=O)CO",
    "solubility at 30 min / µg/mL": 48.9
  }
]

----------
Test: kinetic solubility in FaSSIF (Pion µDissolution monitor)
Assay type: physicochemical
Conditions: thermodynamic from solid; FaSSIF pH 6.5; 37° C; T=4 hour

[
  {
    "Compound": "C[C@@H]1C[C@H]2[C@@H]3CCC4=CC(=O)C=C[C@]4(C)C3=CC[C@]2(C)[C@@]1(O)C(=O)CO [Crystalline API]",
    "solubility at 4 h, µg/mL": 49
  }
]
